- Test Target: thrombin (Bos taurus)
- Construct: purchased Lubelska Wytwórnia Szczepionek (Lublin, Poland)
- Experiment Description: Amidolytic activity of thrombin (chromogenic substrate H-D-Phe-Pip-Arg-pNA)
- Assay type: biochemical
- Cond: amidolytic activity; Tris pH 8.4, 37 °C; IC50 by extrapolation using a linear plot; error 5%; read-out: IC50 Thrombin
Result Type: IC50 (mM)

# annotated cases, reported IC50 shown
Substance	Reported
Ac-KTTKS-NH2 [Peptide 6, Ac-Lys-Thr-Thr-Lys-Ser-NH2]	3.25
H-KTTRS-NH2 [Peptide 13, H-Lys-Thr-Thr-Arg-Ser-NH2]	4.65

P. H-RTTRS-NH2 [Peptide 21, H-Arg-Thr-Thr-Arg-Ser-NH2]
Q. Ac-RTTKS-OH [Peptide 26, Ac-Arg-Thr-Thr-Lys-Ser-OH]
Data request: From the items above, decide which of P and Q has the lower IC50 reading. Write down the label of the entry you select.
Data returned: Q
